Entry source: patent US20240067751A1

Recorded measurements of pKd, one per entry
- tgt: T1, mouse MASP-2 D4-6 recombinant protein (mouse, UniProt Q91WP0 298-685)
- T1 construct: Made 'similarly' to the human protein (N-terminal his6 tag)
- method summary: SPR Biacore T200, antibody on Protein A chip, antigen as analyte, 1:1 fit
- Procedure: Surface plasmon resonance technology (SPR/Biacore T200) was used to capture 0.1 μg/ml of the antibody on the surface of the Protein A chip, with a capture time of 40 seconds and a flow rate of 10 μl/min. The chip was washed with buffer until the baseline leveled off, then gradient-diluted antigen was flowed through the chip at the flow rate of 30 μl/min, with a binding time of 120 sec and a dissociation time of 600 sec. […]
pKd: −log10 of the molar value.
metric name: pKd

- binder: "chimeric antibody 4F18 (antibody, V domains shown, to be rechecked) VH: EVQLQESGPGLVKPSQSLSLACTVTGYSITSDYAWHWIRQFPGNKLEWMGFISYSGRTNYNPPLTSRISITRDTSKNQFFLQLNSVTTEDTATYYCARSYDYWFGYWGQGTLVTVSA VL: NVLMTQTPLSLPVSLGDQASISCRSSQSLVHSNGNTYLEWYMQKPGQSPKLLIYTVSRRFSGVPDRFSGSGSGTDFTLKISRVEAEDLGVYYCFQGSHVPVTFGAGTKLELK"
  recorded value: 6.66
- binder: "chimeric antibody 3B9 (antibody, V domains shown) VH: DVQLQESGPGLVRPSQSLSLTCTVTGYSITSDYAWNWIRQFPGNKLEWMGYISYSGRTSYNPSLKSRLSITRDTSKNQFFLQLNSVSSADTATYYCAIISTAVDFDYWGQGTTLTVSS VL: QTVLTQSPAIMSASLGERVTMTCTASSSVSSSYLLWYQQKPGSSPKLWIYSTSKLASGVPVRFSGSGSGTSYSLTISSMEADDAATYYCLQYNRSPLTFGAGTKLELK"
  recorded value: 6.32
- binder: "chimeric antibody 1B2 (antibody, V domains shown) VH: DVQLQESGPGLVKPSQSLSLTCTVTGYSITSDYAWNWIRQFSGDKLEWMGYISYSGSTSYNPSLKSRISITRDTSKNQFFLHLSSVTTEDTATYFCARYWGDYWGHGTTLTVSS VL: DSVMTQSQKFMSTSVGDRVSVTCKASHNVGTNVAWFQQKPGQSPKGLIYSASYRSSGVPDRFTGSGSGTDFTLTISNVQSEDLAEYFCLQYNSNPLTFGGGTKLEVK"
  recorded value: 6.20
- binder: "chimeric antibody 16A17 (antibody, V domains shown) VH: DVQLQESGPGLVKPSQSLSLTCTVTGYSITSDYAWKWIRQFPGNKLEWMGYISYSGSTSYHPSLKGRISITRDTSKNQFFLQLNSVTADDTATYYCAILGYYAMDYWGQGTSVTVSS VL: DIVMTQSQKFMSTSVGDRVSITCKASQNVRVDVAWYQQKSGQSPRALIYLASNRHTGVPDRFTGSGSGTDFTLTITNVQSEDLADYFCPQHWSYPLTFGGGTKLEIK"
  recorded value: 6.31
